Tested on: HL-1
Assay: cardiomyocyte survival under oxidative or metabolic stress – cell-based, panel, H9c2 and HL-1, H2O2, 2-deoxyglucose, ATP luminescence, SAR follow-up (AID 651642)
Details: H9c2/HL-1 cardiomyocyte 2-deoxyglucose damage, run 1, with 2-deoxyglucose
Measured pIC50 of individual entries
Schema: pIC50 number; meaning minus log10 of the concentration expressed in molar units.

Worked examples, 3 compounds total:
Task: Let me know recorded pIC50 for COc1ccc2c(c1OC)C(=O)N1c3ccccc3C(=O)N(Cc3ccccc3F)C21 (stereo not given) , thanks.
Output: 5.65

Task: Let me know recorded pIC50 for COc1cc(-c2cc(C(=O)Nc3cccc(C(=O)Nc4ccccc4)c3)c3ccccc3n2)cc(OC)c1OC , thanks.
Output: 6.15

Task: Let me know recorded pIC50 for COc1ccc2nc(-c3cc(OC)c(OC)c(OC)c3)cc(C(=O)NCC(=O)Nc3cccc(C(C)=O)c3)c2c1 , thanks.
Output: 5.90

Turning now to a further compound:
Task: Let me know recorded pIC50 for CCNC(=O)c1cccc(NC(=O)c2cc(-c3cc(OC)c(OC)c(OC)c3)nc3ccccc23)c1 , thanks.
Output: 5.29

Origin of values: PubChem BioAssay AID651642
